Entry source: ChEMBL document CHEMBL3045944

Reported MIC is given for each of the following molecules.
Test system: Klebsiella pneumoniae
Assay: Antibacterial activity against Klebsiella pneumoniae NCIM 2706 after 24 hr by broth dilution method
Assay type: functional
Conditions: NCIM 2706, 24 h
reported property: MIC (µg/mL)

Fc1ccc(Nc2nc(Cl)nc(Nc3ccc(F)cc3)n2)cc1 50
O=[N+]([O-])c1ccc(-c2csc(Nc3nc(Nc4ccc(F)c(Cl)c4)nc(Nc4ccc(F)c(Cl)c4)n3)n2)cc1 25
O=[N+]([O-])c1ccc(-c2csc(Nc3nc(Nc4ccc(Br)cc4)nc(Nc4ccc(Br)cc4)n3)n2)cc1 100
O=[N+]([O-])c1ccc(Nc2nc(Nc3ccc([N+](=O)[O-])cc3)nc(Nc3nc(-c4ccc([N+](=O)[O-])cc4)cs3)n2)cc1 6.25

* * *

Experiment: Solubility of the compound in chloroform
Assay type: physicochemical
reported property: solubility

Fc1ccc(Nc2nc(Cl)nc(Nc3ccc(F)cc3)n2)cc1 Insoluble
O=[N+]([O-])c1ccc(-c2csc(Nc3nc(Nc4ccc(F)cc4)nc(Nc4ccc(F)cc4)n3)n2)cc1 soluble
Nc1nc(-c2ccc([N+](=O)[O-])cc2)cs1 soluble
O=[N+]([O-])c1ccc(Nc2nc(Cl)nc(Nc3ccc([N+](=O)[O-])cc3)n2)cc1 soluble
Clc1ccc(Nc2nc(Cl)nc(Nc3ccc(Cl)cc3)n2)cc1 soluble
O=[N+]([O-])c1ccc(Nc2nc(Nc3ccc([N+](=O)[O-])cc3)nc(Nc3nc(-c4ccc([N+](=O)[O-])cc4)cs3)n2)cc1 Insoluble
O=[N+]([O-])c1ccc(-c2csc(Nc3nc(Nc4ccc(Cl)cc4)nc(Nc4ccc(Cl)cc4)n3)n2)cc1 Insoluble
Nc1nc(-c2ccc(Cl)cc2)cs1 soluble
Fc1ccc(Nc2nc(Nc3ccc(F)c(Cl)c3)nc(Nc3nc(-c4ccc(Cl)cc4)cs3)n2)cc1Cl soluble
O=[N+]([O-])c1ccc(-c2csc(Nc3nc(Nc4ccc(Br)cc4)nc(Nc4ccc(Br)cc4)n3)n2)cc1 Insoluble
O=[N+]([O-])c1ccc(-c2csc(Nc3nc(Nc4ccc(F)c(Cl)c4)nc(Nc4ccc(F)c(Cl)c4)n3)n2)cc1 soluble
Clc1nc(Nc2ccc(Br)cc2)nc(Nc2ccc(Br)cc2)n1 Insoluble

* * *

Test: Solubility of the compound in dilute acids
Format: physicochemical
reported property: solubility

Fc1ccc(Nc2nc(Cl)nc(Nc3ccc(F)cc3)n2)cc1 Insoluble
Fc1ccc(Nc2nc(Cl)nc(Nc3ccc(F)c(Cl)c3)n2)cc1Cl soluble
Clc1ccc(Nc2nc(Cl)nc(Nc3ccc(Cl)cc3)n2)cc1 Insoluble
O=[N+]([O-])c1ccc(-c2csc(Nc3nc(Nc4ccc(Cl)cc4)nc(Nc4ccc(Cl)cc4)n3)n2)cc1 soluble
O=[N+]([O-])c1ccc(-c2csc(Nc3nc(Nc4ccc(F)c(Cl)c4)nc(Nc4ccc(F)c(Cl)c4)n3)n2)cc1 soluble
